assay: AUC (0 to infinity) in male Sprague-Dawley rat at 3 mg/kg, iv measured after 24 hrs by LC-MS/MS analysis; type: ADME, organism-based; conditions: in vivo
Bridge positions count the residues as written; N and C are the ends. Square brackets hold non-standard residues; d marks the D form. Peptide text beside a SMILES is read from it. * marks the point of attachment. Heptanoyl(6-Me) = CC(C)CCCCC(=O)*; Dab = NCC[C@H](N)C(=O)O; Dap = NC[C@H](N)C(=O)O

MOLECULE	AUC(0-inf), ng·h/mL
CC(C)CCCCC(=O)N[C@@H](CCN)C(=O)N[C@H](C(=O)N[C@@H](CN)C(=O)N[C@H]1CCNC(=O)[C@H]([C@@H](C)O)NC(=O)[C@H](CCN)NC(=O)[C@H](CCN)NC(=O)[C@H]([C@@H](C)O)NC(=O)[C@@H](Cc2ccccc2)NC(=O)[C@H](CCN)NC1=O)[C@@H](C)O ({Heptanoyl(6-Me)}-[Dab]T[Dap][Dab][Dab][dF]T[Dab][Dab]T; lactam 4-C)	8280
